# Tested on: SF-268 CNS
# method: NCI-60 one-dose screen, 48 h
# test_settings: 10 µM
This is part of a sample that, as a whole, favours compounds with a hit. Of some 83,000 tested, about 20% had one in any assay. The source made the active and inactive calls. The calls were made as follows: active = growth percent below 10; inactive = the rest.
Please reply with one of these outcomes: active, inactive

>  <molecule>
CCOC(=O)c1ccc(NC(=O)CSC(CC(=O)c2sc(Nc3ccccn3)nc2C)c2ccccc2F)cc1 (stereo not given)

>  <class>
active

$$$$
>  <molecule>
COc1cc(-c2nc3ccc(C)cc3[nH]2)ccc1OCc1nnc(-c2ccccc2Br)o1

>  <class>
inactive

$$$$
>  <molecule>
O=C1NC2C=CC=CC2/C1=C1/SC(=S)N(C2CC(=O)N(c3ccc(Br)cc3)C2=O)C1=O (stereo not given)

>  <class>
inactive

$$$$
>  <molecule>
COc1cccc(C(=O)CSc2nc(-c3ccc(OCc4ccccc4)c(OC)c3)c(C#N)c(=O)[nH]2)c1

>  <class>
inactive

$$$$
>  <molecule>
Cc1ccc2sc3c(c2c1)Oc1nc[nH]c(=O)c1C3c1cccc(F)c1 (stereo not given)

>  <class>
inactive

$$$$
>  <molecule>
Cn1cc(-c2nnc(N)nc2-c2c[nH]c3ccc(F)cc23)c2cc(Br)cnc21

>  <class>
inactive

$$$$
>  <molecule>
O=C(CSc1nc2ccccc2c(=O)n1-c1ccc(Cl)cc1)Nc1ccc(-c2nc3ccccc3[nH]2)cc1

>  <class>
active

$$$$
>  <molecule>
COc1cc2oc(-c3cccc(C(=O)Nc4ccc(Cl)cc4)c3)cc(=O)c2c(OCCNC(=O)[C@@H](N)CO)c1OC

>  <class>
inactive

$$$$

Req: For this molecule, state the assay outcome: "O=C(c1ccc(Cl)cc1)C(c1c[nH]c2ccccc12)c1c[nH]c2ccccc12"
Resp: active

Req: For this molecule, state the assay outcome: "COc1ccc(C(=O)COc2ccc(NC(=O)Nc3ccc(Cl)c(C(F)(F)F)c3)cc2)cc1"
Resp: inactive

Req: For this molecule, state the assay outcome: "COc1ccc(Cc2nn(CC(=O)N/N=C/c3ccc([N+](=O)[O-])cc3)c(=O)c3c(C)noc23)cc1"
Resp: inactive

Req: For this molecule, state the assay outcome: "C#C[C@]1(O)CC[C@H]2[C@@H]3CC=C4c5sc(Nc6ccc(N(C)C)cc6)nc5CC[C@]4(C)[C@H]3CC[C@@]21C"
Resp: inactive

Req: For this molecule, state the assay outcome: "O=C(CC(=O)Nc1ccc(Oc2ncnc3scc(Nc4n[nH]c(=S)s4)c23)cc1)Nc1ccc(Cl)cc1"
Resp: inactive

Req: For this molecule, state the assay outcome: "Nc1nnc(-c2c[nH]c3ncc(Br)cc23)c(-c2c[nH]c3ccc(Br)cc23)n1"
Resp: inactive

Req: For this molecule, state the assay outcome: "O=C1NC(=S)S/C1=C\c1cn(-c2ccccc2)nc1-c1ccc([N+](=O)[O-])cc1"
Resp: inactive

Req: For this molecule, state the assay outcome: "O=C(CN1CCN(c2ncnc3c2cnn3-c2ccccc2)CC1)Nc1ccc(Br)cc1"
Resp: inactive

Req: For this molecule, state the assay outcome: CC1(C)CC[C@]2(C(=O)O)CC[C@]3(C)C(=CCC4[C@@]5(C)C[C@@H](O)[C@@H]6OC(c7cccc(F)c7)OC[C@@]6(C)C5CC[C@]43C)C2C1 (stereo not given in full)
Resp: inactive

Req: For this molecule, state the assay outcome: COc1cc(C2CC(c3ccc(Oc4ccc(Cl)cc4)cc3)=NN2c2nc(-c3ccc(Cl)cc3)c(C#N)c(N3CCOCC3)n2)cc(OC)c1OC (stereo not given)
Resp: inactive

Req: For this molecule, state the assay outcome: "C#C[C@]1(O)CC[C@H]2[C@@H]3CC=C4c5sc(Nc6cc(C)cc(C)n6)nc5CC[C@]4(C)[C@H]3CC[C@@]21C"
Resp: active

Req: For this molecule, state the assay outcome: "O=C1S/C(=C\c2ccc([N+](=O)[O-])cc2)C(=O)N1CCN1CCCCC1"
Resp: inactive

Req: For this molecule, state the assay outcome: "Cc1cc(N=C2NC(=O)/C(=C/c3cc(C(C)(C)C)c(O)c(C(C)(C)C)c3)S2)n[nH]1"
Resp: inactive

* * *

# Test system: MDA-MB-468 breast
# method: NCI-60 one-dose screen, 48 h (100 = growth as untreated, 0 = no growth, -100 = all killed)
# test_settings: 10 µM unless noted
The panel holds about 83,000 compounds, 20% with a hit somewhere; the sample as a whole holds those more often.
value_type: growth (%)
A number alone suffices; assume %.

Please review the entries below; each comes with its answer.
>  <molecule>
Cc1cc([N+](=O)[O-])ccc1NC(=O)c1ccc2c(c1)nc(-c1ccccc1)n2C1CCCCC1

>  <test_target>
MDA-MB-468 breast

>  <growth, %>
100

$$$$
>  <molecule>
COC12C=C/C(=C(/C(=O)OCc3csc(SC)n3)C(=O)CCCCCCCCC3(OC)C=C/C(=C(/C(=O)OCc4cnc(SC)s4)C(=O)CCCCCCCC1)O3)O2 (stereo not given)

>  <test_target>
MDA-MB-468 breast

>  <growth, %>
29.5

$$$$
>  <molecule>
CS(=O)(=O)Nc1cc(-c2ccc3ncc(C#N)c(Nc4ccc(F)c(Cl)c4)c3c2)cnc1Cl

>  <test_target>
MDA-MB-468 breast

>  <growth, %>
-48.7

$$$$

According to the records, this molecule "Cc1cc(=O)n(C(=S)Nc2ccc(Cl)cc2)c2cc(O)ccc12" displays growth of 98.7

According to the records, this molecule "Cc1nn2c(-c3nc4ccc(Cl)cc4[nH]3)c(-c3ccc(F)cc3)nc2s1" displays growth of 102

* * *

growth: recorded values
# Test system: MDA-MB-468 breast
# method: NCI-60 one-dose screen, 48 h (100 = growth as untreated, 0 = no growth, -100 = all killed)
# test_settings: 10 µM unless noted
The panel holds about 83,000 compounds, 20% with a hit somewhere; the sample as a whole holds those more often.
A number alone suffices; assume %.

>  <compound>
COc1cc(-c2nnc(-c3nc(-c4cc(OC)c(OC)c(OC)c4)n4ccccc34)o2)ccc1N

>  <test_target>
MDA-MB-468 breast

>  <display_unit>
%

>  <growth>
97.7

$$$$
>  <compound>
COc1ccc(-c2nc3sccn3c2/C=C/C(=O)c2cc(F)cc(F)c2)cc1

>  <test_target>
MDA-MB-468 breast

>  <display_unit>
%

>  <growth>
85.8

$$$$
>  <compound>
Oc1ccc(/C=N/Nc2nc3ccccc3s2)c(O)c1

>  <test_target>
MDA-MB-468 breast

>  <display_unit>
%

>  <growth>
20.2

$$$$
>  <compound>
C=C1C(=O)O[C@H]2[C@H]1CC/C(COC(=O)CSCCSCC(=O)OC/C1=C/CC[C@@]3(C)O[C@H]3[C@H]3OC(=O)C(=C)[C@@H]3CC1)=C\CC[C@@]1(C)O[C@@H]21

>  <test_target>
MDA-MB-468 breast

>  <display_unit>
%

>  <growth>
-44.7

$$$$
>  <compound>
O=C(O)c1cccc([N+](=O)[O-])c1/C=C/c1ccccc1

>  <test_target>
MDA-MB-468 breast

>  <display_unit>
%

>  <growth>
102

$$$$

According to the records, this compound "COc1cc(OC)c(S(N)(=O)=O)cc1C(=O)/C=C/c1ccc(C)cc1" displays growth of -36.2

According to the records, this compound "C/C(=C(\c1ccc(OCCN2CCCCCC2)cc1)c1ccc(OC(=O)c2ccccc2)cc1)c1ccc(Cl)cc1" displays growth of 45.5

According to the records, this compound COc1c(O)cc2oc3cc(O[C@@H]4OC(C)[C@@H](O)[C@H](O)C4O)c(CC=C(C)C)c(O)c3c(=O)c2c1CC=C(C)C (stereo partly drawn) displays growth of 82.5

* * *

# System: ACHN renal
# method: NCI-60 one-dose screen, 48 h
# test_settings: 10 µM
This is part of a sample that, as a whole, favours compounds with a hit. Of some 83,000 tested, about 20% had one in any assay. The source made the active and inactive calls. Rule for the calls: active = growth percent below 10; inactive = the rest.
Please reply with one of these outcomes: active, inactive

>  <compound>
COc1ccc(-n2c(SCC(=O)NNS(=O)(=O)c3ccccc3)nc3ccc(Cl)cc3c2=O)cc1

>  <test_target>
ACHN renal

>  <class>
active

$$$$
>  <compound>
COc1ccc(C(=O)COc2ccc(NC(=O)Nc3ccc(Cl)c(C(F)(F)F)c3)cc2)cc1

>  <test_target>
ACHN renal

>  <class>
inactive

$$$$
>  <compound>
COc1cccc(O)c1/C=C1\SCc2cc3c(OC)cccc3[o+]c21

>  <test_target>
ACHN renal

>  <class>
inactive

$$$$

Req: For this compound, state the assay outcome: "COc1cccc(C(=O)CSc2nc(-c3ccc(OCc4ccccc4)c(OC)c3)c(C#N)c(=O)[nH]2)c1"
Resp: inactive

Req: For this compound, state the assay outcome: "COc1ccc(NCc2cn(-c3ccc(C(=O)O)cc3)nc2-c2ccc(F)cc2)cc1C(F)(F)F"
Resp: inactive

Req: For this compound, state the assay outcome: "O=[N+]([O-])c1cccc(-c2nnc3c(/C=C/c4ccccc4O)nc4ccccc4n23)c1"
Resp: inactive

Req: For this compound, state the assay outcome: "C#C[C@]1(O)CC[C@H]2[C@@H]3CC=C4c5sc(Nc6ccc(N(C)C)cc6)nc5CC[C@]4(C)[C@H]3CC[C@@]21C"
Resp: active

Req: For this compound, state the assay outcome: "O=C(Nc1ccc(Oc2ncnc3scc(Nc4n[nH]c(=S)s4)c23)cc1)C1(C(=O)Nc2cccc(C(F)(F)F)c2)CC1"
Resp: inactive

Req: For this compound, state the assay outcome: "COc1ccccc1-n1cc(C#N)c(N)c1C(=O)c1ccc(Cl)cc1Cl"
Resp: inactive

These data points were gathered from PubChem BioAssay (NCI).
